target: Cellular tumor antigen p53 (Homo sapiens) (UniProt P04637); test: TOX21_p53_BLA_p3_ratio: Tox21 HCT-116 p53 Agonism Beta-lactamase Assay, Ratio, Phase 3 (AID 2283596)
Sequence (P04637 whole entry, looked up): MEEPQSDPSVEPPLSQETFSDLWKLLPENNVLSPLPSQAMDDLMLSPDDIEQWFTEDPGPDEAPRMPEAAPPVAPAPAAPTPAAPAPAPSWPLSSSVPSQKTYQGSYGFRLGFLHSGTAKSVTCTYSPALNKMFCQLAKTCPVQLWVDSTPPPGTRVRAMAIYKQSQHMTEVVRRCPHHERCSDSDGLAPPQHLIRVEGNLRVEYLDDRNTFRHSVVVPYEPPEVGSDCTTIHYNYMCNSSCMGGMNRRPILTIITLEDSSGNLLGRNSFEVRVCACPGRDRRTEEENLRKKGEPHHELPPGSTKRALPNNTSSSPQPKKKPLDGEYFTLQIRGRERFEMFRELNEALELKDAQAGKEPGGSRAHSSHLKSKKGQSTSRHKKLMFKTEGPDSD
Records with an inconclusive call do not appear. The source made the active and inactive calls. The calls were made as follows: active = hit-call score of the fitted dose curve at least 0.9, where 1 is the maximum; inconclusive = response in the unintended direction; inactive = score below 0.9.

Compound: CN(C)C(=O)Oc1cc(OC(=O)N(C)C)cc(C(O)CNC(C)(C)C)c1 (centres undefined)
AC50: inactive

Compound: [CH3][Hg][Cl]
AC50: 1.77 µM (active)

Compound: CC(C)(Cl)Cl
AC50: inactive

Compound: CCOP(=O)(OCC)Oc1ccc([N+](=O)[O-])cc1
AC50: inactive

Compound: NCCOS(=O)(=O)O
AC50: inactive

Compound: C[C@]12N[C@H](Cc3ccccc31)c1ccccc12
AC50: inactive

Compound: O=c1[nH]cc(N(CCCl)CCCl)c(=O)[nH]1
AC50: 23 µM (active)

Compound: O=[N+]([O-])c1cc([N+](=O)[O-])c2ccccc2c1
AC50: inactive

Compound: COC(=O)C(c1ccccc1)C1CCCCN1 (centres undefined)
AC50: inactive

Compound: c1ccc(CN2CCNCC2)cc1
AC50: inactive

Compound: CN(C)[C@H](Cc1ccccc1)c1ccccc1
AC50: inactive

Compound: O=C/C=C/c1ccco1
AC50: inactive

Compound: CC(C)(C)C(=O)Cl
AC50: inactive

Compound: Clc1ccc([C@@H]2C[C@H]3CC[C@@H]2N3)cn1
AC50: inactive
